Here the recorded log10 of CC50 is given for each entry.
# Tested on: BSC-1
# test.protocol: Cytotoxicity against african green monkey BSC1 cells after 2 to 4 hrs by MTS assay
# Assay type: cell-based
# assay.conditions: chlorocebus aethiops, bsc-1
In plain terms, each number is the log10 of measured CC50 in µM.

molecule=CC(C)CCCCCCCCCCCCCCOCCCOP(=O)(O)CO[C@H](CO)Cn1cnc2c(N)ncnc21 assay_metric="log10 of CC50" reported_result=1.07
molecule=CC(C)CCCCCCCCCCCOCCCOP(=O)(O)CO[C@H](CO)Cn1ccc(N)nc1=O assay_metric="log10 of CC50" reported_result=1.91

Data request: Which measured log10 of CC50 belongs to `CC(C)CCCCCCCCCCCCCCOCCOP(=O)(O)CO[C@H](CO)Cn1cnc2c(N)ncnc21` , tested on BSC-1?
Data returned: 1.78

Data request: Which measured log10 of CC50 belongs to `Nc1ccn(C[C@@H](CO)OCP(=O)(O)OCCCOCCCCCCCCCCCCCCC2CC2)c(=O)n1` , tested on BSC-1?
Data returned: 1.87

Data request: Which measured log10 of CC50 belongs to `CCCCCCCCCCCCCCCCOCCCOP(=O)(O)CO[C@H](CO)Cn1cnc2c(N)ncnc21` , tested on BSC-1?
Data returned: 1.93

Data request: Which measured log10 of CC50 belongs to `CCCCCCCCCCCCCCCCOCCOP(=O)(O)CO[C@H](CO)Cn1cnc2c(N)ncnc21` , tested on BSC-1?
Data returned: 1.61

Data request: Which measured log10 of CC50 belongs to `C=CCCCCCCCCCCCCCCOCCOP(=O)(O)CO[C@H](CO)Cn1cnc2c(N)ncnc21` , tested on BSC-1?
Data returned: 0.37

Data request: Which measured log10 of CC50 belongs to `CC(C)CCCCCCCCCCCCCCOCCCOP(=O)(O)CO[C@H](CO)Cn1ccc(N)nc1=O` , tested on BSC-1?
Data returned: 1.89

Data request: Which measured log10 of CC50 belongs to `CC(C)CCCCCCCCCCCCOCCCOP(=O)(O)CO[C@H](CO)Cn1ccc(N)nc1=O` , tested on BSC-1?
Data returned: 1.91

Data request: Which measured log10 of CC50 belongs to CCCCCCCCCCCCCCCCOCCCOP(=O)(O)CO[C@H](CO)Cn1ccc(N)nc1=O [BRINCIDOFOVIR] , tested on BSC-1?
Data returned: 1.40

====

# test.protocol: Selectivity index, ratio of CC50 for human HFF cells to EC50 for Vaccinia virus Copenhagen
# Assay type: toxicity, cell-based
# assay.conditions: read-out: Ratio CC50/EC50
Criterion: selectivity ratio meeting or surpassing 100. Met: True. Not met: False.

Here's what some known entries look like.
compound=CC(C)CCCCCCCCCCCCCCOCCCOP(=O)(O)CO[C@H](CO)Cn1ccc(N)nc1=O class_label=False
compound=CCCCCCCCCCCCCCCCOCCOP(=O)(O)CO[C@H](CO)Cn1cnc2c(N)ncnc21 class_label=True
compound=CC(C)CCCCCCCCCCCCCCOCCCOP(=O)(O)CO[C@H](CO)Cn1cnc2c(N)ncnc21 class_label=True
compound=C=CCCCCCCCCCCCCCCOCCOP(=O)(O)CO[C@H](CO)Cn1cnc2c(N)ncnc21 class_label=False
compound=CCCCCCCCCCCCCCCCCCOC[C@@H](COP(=O)(O)CO[C@H](CO)Cn1ccc(N)nc1=O)OCc1ccccc1 class_label=True

Data request: Decide: selectivity ratio of `CC(C)CCCCCCCCCCCOCCCOP(=O)(O)CO[C@H](CO)Cn1ccc(N)nc1=O` >= 100?
Data returned: False

Data request: Decide: selectivity ratio of CCCCCCCCCCCCCCCCOCCCOP(=O)(O)CO[C@H](CO)Cn1ccc(N)nc1=O [BRINCIDOFOVIR] >= 100?
Data returned: True

Data request: Decide: selectivity ratio of `CCCCCCCCCCCCCCCCOCCCOP(=O)(O)CO[C@H](CO)Cn1cnc2c(N)ncnc21` >= 100?
Data returned: True

Data request: Decide: selectivity ratio of `Nc1ccn(C[C@@H](CO)OCP(=O)(O)OCCCOCCCCCCCCCCCCCCC2CC2)c(=O)n1` >= 100?
Data returned: True

Data request: Decide: selectivity ratio of `CC(C)CCCCCCCCCCCCCCOCCOP(=O)(O)CO[C@H](CO)Cn1cnc2c(N)ncnc21` >= 100?
Data returned: True

Data request: Decide: selectivity ratio of `CC(C)CCCCCCCCCCCCOCCCOP(=O)(O)CO[C@H](CO)Cn1ccc(N)nc1=O` >= 100?
Data returned: True

====

# test.protocol: Selectivity index, ratio of CC50 for african green monkey BSC1 cells to EC50 for Ectromelia virus Moscow
# Format: toxicity, cell-based, BSC-1
# assay.conditions: read-out: Ratio CC50/EC50
// classify(record): look up selectivity ratio in ranges lowest = under 200, middle = from 200 up to 1000, highest = 1000 and over

Here's what some known entries look like.
smiles_text=CC(C)CCCCCCCCCCCCCCOCCCOP(=O)(O)CO[C@H](CO)Cn1ccc(N)nc1=O class_label=highest
smiles_text=C=CCCCCCCCCCCCCCCOCCOP(=O)(O)CO[C@H](CO)Cn1cnc2c(N)ncnc21 class_label=lowest

Data request: Entry `Nc1ccn(C[C@@H](CO)OCP(=O)(O)OCCCOCCCCCCCCCCCCCCC2CC2)c(=O)n1` belongs to which category?
Data returned: lowest

Data request: Entry `CCCCCCCCCCCCCCCCOCCOP(=O)(O)CO[C@H](CO)Cn1cnc2c(N)ncnc21` belongs to which category?
Data returned: middle

Data request: Entry `CC(C)CCCCCCCCCCCCCCOCCOP(=O)(O)CO[C@H](CO)Cn1cnc2c(N)ncnc21` belongs to which category?
Data returned: highest

====

Here the recorded selectivity ratio is given for each entry.
# test.protocol: Selectivity index, ratio of CC50 for human HFF cells to EC50 for Cowpox virus (Brighton Red)
# Type: toxicity, cell-based
# assay.conditions: read-out: Ratio CC50/EC50
Please respond with just the number, no unit label.

compound=CC(C)CCCCCCCCCCCCOCCCOP(=O)(O)CO[C@H](CO)Cn1ccc(N)nc1=O reported_result=123
compound=CC(C)CCCCCCCCCCCOCCCOP(=O)(O)CO[C@H](CO)Cn1ccc(N)nc1=O reported_result=55
compound=CC(C)CCCCCCCCCCCCCCOCCCOP(=O)(O)CO[C@H](CO)Cn1cnc2c(N)ncnc21 reported_result=285

Data request: Look at this compound and give its reported selectivity ratio. `C=CCCCCCCCCCCCCCCOCCOP(=O)(O)CO[C@H](CO)Cn1cnc2c(N)ncnc21`
Data returned: 85

Data request: Look at this compound and give its reported selectivity ratio. CCCCCCCCCCCCCCCCOCCCOP(=O)(O)CO[C@H](CO)Cn1ccc(N)nc1=O [BRINCIDOFOVIR]
Data returned: 125

====

# test.protocol: Metabolic stability in human liver S9 fraction assessed as compound remaining at 1 uM after 90 mins by HPLC/MS/MS
# Assay type: ADME, subcellular
# assay.conditions: read-out: Stability
assay.metric: remaining at 1.5 h, 1 µM (%)
Provide the reading as a plain figure in %.

Worked examples, 3 molecules total:
smiles_text=CC(C)CCCCCCCCCCCCCCOCCCOP(=O)(O)CO[C@H](CO)Cn1cnc2c(N)ncnc21 assay_metric="remaining at 1.5 h, 1 µM" reported_result=91.3
smiles_text=CCCCCCCCCCCCCCCCOCCCOP(=O)(O)CO[C@H](CO)Cn1ccc(N)nc1=O assay_metric="remaining at 1.5 h, 1 µM" reported_result=83.3
smiles_text=Nc1ccn(C[C@@H](CO)OCP(=O)(O)OCCCOCCCCCCCCCCCCCCC2CC2)c(=O)n1 assay_metric="remaining at 1.5 h, 1 µM" reported_result=88

Data request: Look at this molecule and give its reported remaining at 1.5 h, 1 µM. `CCCCCCCCCCCCCCCCCCOC[C@@H](COP(=O)(O)CO[C@H](CO)Cn1ccc(N)nc1=O)OCc1ccccc1`
Data returned: 92.3

====

# System: Ectromelia virus Moscow
# test.protocol: Antiviral activity against Ectromelia virus Moscow infected in african green monkey BSC1 cells after 4 to 5 days by plaque reduction assay
# Format: functional, organism-based
# assay.conditions: BSC-1
Cut-off 100 nM on EC50: below means Fulfilled, at or above means Not fulfilled.

Here's what some known entries look like.
compound=CC(C)CCCCCCCCCCCCCCOCCCOP(=O)(O)CO[C@H](CO)Cn1cnc2c(N)ncnc21 class_label=Fulfilled
compound=CCCCCCCCCCCCCCCCCCOC[C@@H](COP(=O)(O)CO[C@H](CO)Cn1ccc(N)nc1=O)OCc1ccccc1 class_label=Fulfilled
compound=Nc1ccn(C[C@@H](CO)OCP(=O)(O)OCCCOCCCCCCCCCCCCCCC2CC2)c(=O)n1 class_label="Not fulfilled"
compound=CCCCCCCCCCCCCCCCOCCCOP(=O)(O)CO[C@H](CO)Cn1cnc2c(N)ncnc21 class_label=Fulfilled
compound=CC(C)CCCCCCCCCCCCOCCCOP(=O)(O)CO[C@H](CO)Cn1ccc(N)nc1=O class_label="Not fulfilled"
compound=CC(C)CCCCCCCCCCCOCCCOP(=O)(O)CO[C@H](CO)Cn1ccc(N)nc1=O class_label="Not fulfilled"

Data request: Quick check: EC50 of `CCCCCCCCCCCCCCCCOCCOP(=O)(O)CO[C@H](CO)Cn1cnc2c(N)ncnc21` under 100 nM?
Data returned: Not fulfilled

Data request: Quick check: EC50 of `CC(C)CCCCCCCCCCCCCCOCCOP(=O)(O)CO[C@H](CO)Cn1cnc2c(N)ncnc21` under 100 nM?
Data returned: Fulfilled

Data request: Quick check: EC50 of `C=CCCCCCCCCCCCCCCOCCOP(=O)(O)CO[C@H](CO)Cn1cnc2c(N)ncnc21` under 100 nM?
Data returned: Not fulfilled

Data request: Quick check: EC50 of CCCCCCCCCCCCCCCCOCCCOP(=O)(O)CO[C@H](CO)Cn1ccc(N)nc1=O [BRINCIDOFOVIR] under 100 nM?
Data returned: Not fulfilled

Data request: Quick check: EC50 of `CC(C)CCCCCCCCCCCCCCOCCCOP(=O)(O)CO[C@H](CO)Cn1ccc(N)nc1=O` under 100 nM?
Data returned: Fulfilled
